Molecular target: human ERα (Homo sapiens)
Sequence (P03372 1-595): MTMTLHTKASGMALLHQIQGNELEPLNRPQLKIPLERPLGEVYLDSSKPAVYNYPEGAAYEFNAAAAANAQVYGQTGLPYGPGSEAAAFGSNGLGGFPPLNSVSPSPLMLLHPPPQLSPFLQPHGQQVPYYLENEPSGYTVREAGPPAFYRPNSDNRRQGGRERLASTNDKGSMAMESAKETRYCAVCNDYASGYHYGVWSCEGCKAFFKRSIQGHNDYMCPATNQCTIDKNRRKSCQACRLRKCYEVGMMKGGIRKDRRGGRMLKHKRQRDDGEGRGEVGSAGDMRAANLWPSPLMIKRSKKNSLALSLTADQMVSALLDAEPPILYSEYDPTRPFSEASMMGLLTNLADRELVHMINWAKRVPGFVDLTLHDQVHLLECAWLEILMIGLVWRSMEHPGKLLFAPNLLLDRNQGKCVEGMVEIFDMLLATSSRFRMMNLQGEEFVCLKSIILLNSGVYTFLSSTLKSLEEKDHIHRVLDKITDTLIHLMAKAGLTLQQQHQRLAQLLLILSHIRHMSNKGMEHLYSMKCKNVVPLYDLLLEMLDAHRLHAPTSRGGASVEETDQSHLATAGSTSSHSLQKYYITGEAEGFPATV
Assay: NF-κB luciferase reporter (ER/NF-KB-luc) in Ad5-wt-hERα infected HAECT-1 cells
Details: ER/NF-KB-luc IC50, Ad5-wt-ER infected HAECT-1 cells, IL-1β
METRIC NAME: pIC50
Scale note: pIC50 = -log10(concentration in M).

In [3]: df
Out[3]:
                         chemical_structure  value_measured
0  Cc1cccc(-n2nc(-c3ccc(O)cc3O)c3ccc(O)cc32)c1            6.62

Query block: Lab request: please report pIC50 under test system human ERα (Homo sapiens) for `Cc1ccccc1-c1cccc2c(-c3ccc(O)cc3)nn(C3CCCC3)c12`
Result block: 7.80

Query block: Likewise for `Oc1ccc(-c2nn(C3CCC3)c3c(C(F)(F)F)cccc23)c(O)c1` ?
Result block: 7.85

###

Molecular target: human ERα (Homo sapiens, UniProt P03372)
Experiment: NF-κB luciferase reporter (ER/NF-KB-luc) in Ad5-wt-hERα infected HAECT-1 cells
Settings: HAECT1, read-out: ER/NF-KB-luc % E2, efficacy relative to the maximal inhibition observed with E2
Output Y for Emax not less than 90%; output N otherwise.

                                   compound  qualitative_label
0  Cc1cc(O)ccc1-c1nn(C(C)C)c2c(Cl)cccc12 [Example 77]                  N
1  Oc1ccc(-c2n[nH]c3cc(Cl)c(F)cc23)cc1 [Example 131]                  N
2  CCCCCn1nc(-c2ccc(O)cc2)c2cccc(Cl)c21 [Example 41]                  N
3  Cc1cc(O)ccc1-c1nn(C(C)C)c2c(F)cccc12 [Example 91]                  N
4  CSc1ccc(-c2cccc3c(-c4ccc(O)cc4)nn(C(C)C)c23)cc1 [Example 228]                  N

Query block: Form field: Emax at least 90%? Entry: Oc1ccc(-c2n[nH]c3ccccc23)cc1 [Example 130, 4-(H-indazol-3-yl)phenol]
Result block: Y

Query block: Likewise for Oc1ccc(-c2nn(Cc3ccccc3)c3ccccc23)c(O)c1 [Example 183] ?
Result block: Y

Query block: Likewise for CC(C)n1nc2c(F)cccc2c1-c1ccc(O)cc1O [Example 89] ?
Result block: Y

Query block: Likewise for CC(C)n1nc2c(F)cccc2c1-c1ccc(O)cc1 [Example 56] ?
Result block: Y

Query block: Likewise for C=CCn1nc2c(C(F)(F)F)cccc2c1-c1ccc(O)cc1O [Example 75] ?
Result block: N
